These entries and their values trace back to ChEMBL document CHEMBL5385966.

Tested on: Staphylococcus aureus
procedure-summary: Antibacterial activity against methicillin/ceftriaxone/meropenem-resistant Staphylococcus aureus NRS10191 clinical isolate assessed as bacterial growth inhibition incubated for 16 to 18 hrs by CLSI based antibiotic susceptibility testing method
Format: functional
run-parameters: time 16-18 hrs
readout-type: MIC (µg/mL)

1. O=C(CCN1C(=O)c2cccc3cccc(c23)C1=O)N1CCN(C(=S)NC2CCCCC2)CC1    2
2. O=C1c2cccc3cccc(c23)C(=O)N1CCN1CCN(C(=S)NC2CCCCC2)CC1    0.25
3. O=C(CN1C(=O)c2cccc3cccc(c23)C1=O)N1CCN(C(=S)NC2CCCCC2)CC1    0.25
